- run-description: Toxicity liver stage against HepG2, at 10uM
- Format: cell-based
- Design: test concentration 10 uM, cell line HepG2-A16-CD81EGFP
- assay-setup: human, HepG2-A16-CD81EGFP cells; read-out: INHIBITION
This listing pairs compounds with measured cytotoxicity at 10 µM.
Just the number in %, nothing appended.

NC(=O)CN(Cc1ccc(Br)cc1)C(=O)c1ccncc1
4.16
CC[C@@H]1N(Cc2ccncc2)CCC[C@]12CCC(=O)N2CCOC
11.5

## Input Given `CN(C)c1cncc(C2CCN(CC3(O)CCCCC3)CC2)n1` , respond with its cytotoxicity at 10 µM.
## Output -30

## Input Given `COCCN1C(=O)CCC12CCN(C(=O)CC1CC1)CC2` , respond with its cytotoxicity at 10 µM.
## Output 3.73

## Input Given `CC(C)Oc1cccc2c1c(NC(=O)CN(C)C)nn2CC(F)(F)F` , respond with its cytotoxicity at 10 µM.
## Output -9.69

## Input Given `CCC(=O)Nc1cccc(OCC(=O)N(C)Cc2ccon2)c1` , respond with its cytotoxicity at 10 µM.
## Output 5.37

## Input Given Cc1cnc2c(S(=O)(=O)NC3CCS(=O)(=O)C3)cccc2c1 (stereo not given) , respond with its cytotoxicity at 10 µM.
## Output -2.28

## Input Given Cc1cc(C)c(CNC(=O)C(C)Oc2cccc(C#N)c2)c(=O)[nH]1 (stereo not given) , respond with its cytotoxicity at 10 µM.
## Output 7.42

----------
- run-description: Toxicity liver stage against HepG2, at 10uM
- Assay type: cell-based
- Design: test concentration 10 uM, cell line HepG2-A16-CD81EGFP
- assay-setup: human, HepG2-A16-CD81EGFP cells; read-out: INHIBITION
measured-endpoint: cytotoxicity at 10 µM (%)
Just the number in %, nothing appended.

Worked cases, cytotoxicity at 10 µM given:
COCCCn1cnnc1CNc1cc(C)nc2ccnn12
-7.79
CCCn1nc2c(cc1=O)CN(Cc1nc(-c3ccoc3)no1)CC2
8.64
OCCn1cc(CN2CCN(CCOCC(F)(F)F)CC2)cn1
-10.7
CC(=O)c1ccc(NCc2cc3n(n2)CCCN(S(C)(=O)=O)C3)nc1
1.02

## Input Given `COc1cccc(CCNC(=O)NC(C)C)c1O` , respond with its cytotoxicity at 10 µM.
## Output 2.27

## Input Given CCN1CCN(c2ccc(NC(C)c3nc(C(C)C)no3)c(C)c2)CC1 (configuration not stated) , respond with its cytotoxicity at 10 µM.
## Output -10

## Input Given `Cc1ccc(CN2CC3(CCN(C(=O)c4cccnc4)C3)C2)o1` , respond with its cytotoxicity at 10 µM.
## Output -79.6

## Input Given Cc1cc(C)n(CC2CCCN2C(=O)c2ccc(N(C)C)nn2)n1 (configuration not stated) , respond with its cytotoxicity at 10 µM.
## Output 1.53

## Input Given O=C(COCCc1ccccc1)N1CCCC(n2cccn2)C1 (configuration not stated) , respond with its cytotoxicity at 10 µM.
## Output -3.42

----------
- run-description: Toxicity liver stage against HepG2, at 10uM
- Assay type: cell-based
- Set-up: test concentration 10 uM, cell line HepG2-A16-CD81EGFP
- assay-setup: human, HepG2-A16-CD81EGFP cells; read-out: INHIBITION
This listing pairs compounds with measured cytotoxicity at 10 µM.
Just the number in %, nothing appended.

Worked cases, cytotoxicity at 10 µM given:
Cc1ccc(CN2CCC3(CC2)C(=O)N(CC(C)C)CCN3C)s1
-3.63
COCC(=O)N1C[C@@H](C)[C@](O)(C(C)C)C1
1.69

## Input Given COC(=O)C1=C(C)N=C2SCC(=O)N2C1c1cnn(C)c1C (configuration not stated) , respond with its cytotoxicity at 10 µM.
## Output 4.01

## Input Given O=C1CSC(c2ccc(O)cc2)c2sccc2N1 (configuration not stated) , respond with its cytotoxicity at 10 µM.
## Output 5.31

## Input Given CC(C)CC(NC(=O)c1ccn(C)c(=O)c1)c1cccs1 (configuration not stated) , respond with its cytotoxicity at 10 µM.
## Output 1.67

## Input Given CC(c1ccco1)n1cc(-c2cc(CN3CCCC3)cs2)nn1 (configuration not stated) , respond with its cytotoxicity at 10 µM.
## Output -23.6

## Input Given `Cn1ncc2c(=O)[nH]c(CN3CCCc4cc(F)ccc43)nc21` , respond with its cytotoxicity at 10 µM.
## Output -8.23

## Input Given `Cc1nc(NS(=O)(=O)c2ccc(C)c(Br)c2)no1` , respond with its cytotoxicity at 10 µM.
## Output 11.2

## Input Given COc1ccc(OC)c(CCNC(=O)NC(C)Cn2ccnc2)c1 (configuration not stated) , respond with its cytotoxicity at 10 µM.
## Output -1.06

## Input Given `c1coc(-c2nnc([C@H]3CCN(Cc4ccc5c(c4)OCO5)C3)o2)c1` , respond with its cytotoxicity at 10 µM.
## Output -0.0837

## Input Given Cc1ccc(S(=O)(=O)NCC(C)C#N)cc1Br (configuration not stated) , respond with its cytotoxicity at 10 µM.
## Output 0.727

## Input Given `COc1ccc(CNC(=O)c2nn(C)c3c2CS(=O)(=O)CC3)cc1` , respond with its cytotoxicity at 10 µM.
## Output 8.52

## Input Given `CCc1nnc2n1CCN(C(=O)c1ccc(-c3ccco3)[nH]c1=O)C2` , respond with its cytotoxicity at 10 µM.
## Output -11.5

## Input Given CCc1nnc(C2Cc3ccccc3CN2Cc2nc(C3CC3)no2)o1 (configuration not stated) , respond with its cytotoxicity at 10 µM.
## Output -8.03

## Input Given `C[C@H]1CN(C(=O)c2ccc[nH]2)C[C@@]12CCN(c1ccsc1)C2=O` , respond with its cytotoxicity at 10 µM.
## Output -77.4

## Input Given `CC(C)Cc1noc(CN2CCN(C(=O)c3ccco3)CC2)n1` , respond with its cytotoxicity at 10 µM.
## Output -5.39

## Input Given `Cn1cnnc1C1CCN(C(=O)COCc2ccccc2Cl)CC1` , respond with its cytotoxicity at 10 µM.
## Output -6.07

## Input Given Cc1ccoc1C1=NNC(=CN2CCOC(Cn3cccn3)C2)O1 (configuration not stated) , respond with its cytotoxicity at 10 µM.
## Output -7.69

## Input Given `Cc1nc(C)c(C)c(N2C[C@@H](CN3CCCN(C)CC3)[C@@H](CO)C2)n1` , respond with its cytotoxicity at 10 µM.
## Output -10.4

## Input Given `COCCN(C)[C@@H]1c2ccccc2C2(CCNCC2)[C@H]1O` , respond with its cytotoxicity at 10 µM.
## Output -4.61

----------
- run-description: Toxicity liver stage against HepG2, at 10uM
- Format: cell-based
- Parameters: test concentration 10 uM, cell line HepG2-A16-CD81EGFP
- assay-setup: human, HepG2-A16-CD81EGFP cells; read-out: INHIBITION
This listing pairs molecules with measured cytotoxicity at 10 µM.
Just the number in %, nothing appended.

Worked cases, cytotoxicity at 10 µM given:
O=C(NCc1ccc(Cl)s1)c1ccc(N2CCOC2=O)cc1
21.1
Cc1cc(C)n(CCCN(C)c2cc(N(C)C)ncn2)n1
3.85
Fc1ccc(-c2cnc(C3CCNCC3)cn2)cc1
-7.14
CC(NC(=O)CCc1cccs1)c1nnc2n1CCCCC2 (stereo not drawn)
-7.59
CCc1nc(C)ncc1C(=O)N1CCCC(n2nc(C)nc2C)C1 (stereo not drawn)
-8.47

## Input Given CCC(O)CN(CC(=O)Nc1cc(C)no1)c1ccccc1 (stereo not drawn) , respond with its cytotoxicity at 10 µM.
## Output -2.59

## Input Given OCC1(CC2CC2)CCCN(Cc2ccc(C(F)(F)F)nc2)C1 (stereo not drawn) , respond with its cytotoxicity at 10 µM.
## Output -5.96

## Input Given `O=C(c1cccs1)N1CCC[C@]2(C[C@@H](OCc3ccncc3)CO2)C1` , respond with its cytotoxicity at 10 µM.
## Output 7.92

## Input Given CC1(C)Cc2nc(C(C)(C)C)ncc2C(NC(=O)CN)C1 (stereo not drawn) , respond with its cytotoxicity at 10 µM.
## Output -6.55

## Input Given `CC(C)(C)c1nc(NS(=O)(=O)c2cccc(F)c2)no1` , respond with its cytotoxicity at 10 µM.
## Output -10.8

## Input Given `CCCN1CCN(C(=O)c2cnc(C)nc2)[C@H]2CS(=O)(=O)C[C@H]21` , respond with its cytotoxicity at 10 µM.
## Output 0.0652

## Input Given `CCc1cnc(NCc2ccccc2Cn2cccn2)nc1` , respond with its cytotoxicity at 10 µM.
## Output -2.45

## Input Given `CC(=O)N1CCCCC[C@@H]2[C@@H]1[C@H](c1cccc(F)c1)CN2C(=O)C1CC1` , respond with its cytotoxicity at 10 µM.
## Output 6.75

## Input Given Cc1cc(CN2CCN(CC(O)c3ccccc3)CC2)no1 (stereo not drawn) , respond with its cytotoxicity at 10 µM.
## Output -14.4

## Input Given COCC(=O)N1CCCC1c1nccnc1Nc1nc(C)cs1 (stereo not drawn) , respond with its cytotoxicity at 10 µM.
## Output -3.36

## Input Given `CCN(C(=O)Cn1cc(Cl)cn1)c1ccccc1` , respond with its cytotoxicity at 10 µM.
## Output -8.01

## Input Given Cc1ccc(-n2cc(C(=O)NCC(C)Cn3cccn3)nn2)cc1 (stereo not drawn) , respond with its cytotoxicity at 10 µM.
## Output -46.2

## Input Given `Cc1cnc(N)c(C(=O)C2CCN(C(=O)C3CCC3)CC2)c1` , respond with its cytotoxicity at 10 µM.
## Output -23.1
